B1: minF1; a variant is named by its letters at N, in order (parent)
chain: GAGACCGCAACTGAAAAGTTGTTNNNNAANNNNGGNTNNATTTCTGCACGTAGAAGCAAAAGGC

Variants of: B1
test.details: fraction ligated after 30 min (ligated reads / total reads); higher = more ligase activity
measurement.conditions: with F1*subA RNA substrate (template-directed ligation), 42 °C
Group membership follows fraction ligated per the scheme low range (below 0.002), mid range (0.002 to below 0.003), high range (0.003 or more)

[[record]]
mutation_label = "GAAAGATGTGA A28T A29G"
cat = "mid range"

[[record]]
mutation_label = "TCAGTGATGTA"
cat = "low range"

[[record]]
mutation_label = "ACAAGGAGTGA A29T"
cat = "high range"

[[record]]
mutation_label = "TCAGTGATTGA"
cat = "low range"

[[record]]
mutation_label = "TAGAGGATGTA"
cat = "low range"

[[record]]
mutation_label = "ATAGATGGGTA G34T"
cat = "mid range"

[[record]]
mutation_label = "ATCGTGGAGTG G34T"
cat = "high range"

[[record]]
mutation_label = "TCAGGGAGTGA"
cat = "high range"

[[record]]
mutation_label = "TAGATGGAGTA T23A G34T"
cat = "mid range"

[[record]]
mutation_label = "ATCAATGGGTG"
cat = "high range"

[[record]]
mutation_label = "TCAGAGGTTGA"
cat = "low range"

[[record]]
mutation_label = "CAAAGATGTGA T23A A29T"
cat = "low range"

[[record]]
mutation_label = "ATAGTGATGTG"
cat = "high range"

[[record]]
mutation_label = "TGAAGATGTGA A29T"
cat = "mid range"

[[record]]
mutation_label = "TCAGATGAGTG T23A G34T"
cat = "high range"

[[record]]
mutation_label = "ATCGAGGTTGA"
cat = "high range"

[[record]]
mutation_label = "ATAGTGGAGTT G34T T37G A40G"
cat = "low range"

[[record]]
mutation_label = "ACAATGAGTGA"
cat = "low range"

[[record]]
mutation_label = "ATCATGGTGTG A28G"
cat = "high range"

[[record]]
mutation_label = "CAGATGGTGTA"
cat = "low range"

[[record]]
mutation_label = "ATCGATGGGGT G34A G35T T37G A40T"
cat = "low range"

[[record]]
mutation_label = "ATAGATTGTGA"
cat = "low range"

[[record]]
mutation_label = "ATAGATGGGTT G34T T37G A40G"
cat = "low range"

[[record]]
mutation_label = "TCGAGGAGTGA T23A"
cat = "high range"

[[record]]
mutation_label = "ACGATGTGTGA"
cat = "mid range"

[[record]]
mutation_label = "TCAATGGAGTT T23A G34T T37G"
cat = "low range"

[[record]]
mutation_label = "ACAATGGAGTA G34T"
cat = "high range"

[[record]]
mutation_label = "AAAAGGAGTGA A29T"
cat = "high range"

[[record]]
mutation_label = "ATAATGATTGA"
cat = "mid range"

[[record]]
mutation_label = "CGAAGGAGTGA T23A A29T"
cat = "high range"

[[record]]
mutation_label = "ATCGAGGAGTA G34T"
cat = "low range"

[[record]]
mutation_label = "ATAATGGGTGA"
cat = "high range"

[[record]]
mutation_label = "ATCAGGAGTGA"
cat = "high range"

[[record]]
mutation_label = "ATCGGGAGTGA"
cat = "mid range"

[[record]]
mutation_label = "ATAGATGGGTG"
cat = "high range"

[[record]]
mutation_label = "AAGATGGAGTT G34T T37G A40G"
cat = "low range"

[[record]]
mutation_label = "CAGAGGATGTG"
cat = "high range"

[[record]]
mutation_label = "TCAGTGGTGTG T23A"
cat = "high range"

[[record]]
mutation_label = "CAGAGGAGTGA T23A A29T"
cat = "low range"

[[record]]
mutation_label = "TAGATGGGTGA T23A"
cat = "low range"

[[record]]
mutation_label = "ACAAGATGTGA A29G"
cat = "high range"

[[record]]
mutation_label = "ATCAAGGAGTG A28G"
cat = "high range"

